// compounds with reported IC50 on UniProtKB P43403, multi-publication
Sequence (P43403 whole entry): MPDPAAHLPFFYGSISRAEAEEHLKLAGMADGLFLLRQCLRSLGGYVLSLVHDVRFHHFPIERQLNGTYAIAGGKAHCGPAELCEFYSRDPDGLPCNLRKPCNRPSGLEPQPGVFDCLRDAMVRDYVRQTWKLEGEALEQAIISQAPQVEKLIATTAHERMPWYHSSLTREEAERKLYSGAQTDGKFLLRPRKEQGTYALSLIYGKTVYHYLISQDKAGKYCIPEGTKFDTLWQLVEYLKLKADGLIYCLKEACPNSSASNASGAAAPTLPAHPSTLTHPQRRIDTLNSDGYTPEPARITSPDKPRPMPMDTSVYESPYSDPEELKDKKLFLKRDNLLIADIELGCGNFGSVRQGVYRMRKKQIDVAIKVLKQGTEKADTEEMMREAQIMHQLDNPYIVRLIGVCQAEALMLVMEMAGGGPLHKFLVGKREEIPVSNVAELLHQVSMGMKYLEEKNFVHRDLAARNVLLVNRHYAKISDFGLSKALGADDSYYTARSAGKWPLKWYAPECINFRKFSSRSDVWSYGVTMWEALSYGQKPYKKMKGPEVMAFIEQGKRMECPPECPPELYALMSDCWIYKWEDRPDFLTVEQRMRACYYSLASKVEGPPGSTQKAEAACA

(Q) Which IC50 is reported with UniProtKB P43403 for this entry: `CC[C@H]1CN(c2ccc(-c3ccnc(Nc4cc(OC)c(OC)c(OC)c4)n3)cn2)CCN1` ?
(A) 0.008 µM

(Q) Which IC50 is reported with UniProtKB P43403 for this entry: `COc1cc(-c2nn([C@H]3CC[C@H](N4CCN(C(C)=O)CC4)CC3)c3ncnc(N)c23)ccc1NC(=O)c1cc2ccccc2n1C` ?
(A) > 25 µM

(Q) Which IC50 is reported with UniProtKB P43403 for this entry: COc1cc(C)c(Sc2cnc(NC(=O)c3ccc(CNC(C)C(C)(C)C)cc3)s2)cc1C(=O)N1CCN(C(C)=O)CC1 (centres undefined) ?
(A) > 50 µM

(Q) Which IC50 is reported with UniProtKB P43403 for this entry: `COc1cc2c(Oc3ccc(-c4cnc(Cc5ccccc5)n(C)c4=O)cc3F)ccnc2cc1OCCCN1CCOCC1` ?
(A) > 5.4 µM
